# target-desc: UniProt P04150
# Sequence (P04150 whole entry): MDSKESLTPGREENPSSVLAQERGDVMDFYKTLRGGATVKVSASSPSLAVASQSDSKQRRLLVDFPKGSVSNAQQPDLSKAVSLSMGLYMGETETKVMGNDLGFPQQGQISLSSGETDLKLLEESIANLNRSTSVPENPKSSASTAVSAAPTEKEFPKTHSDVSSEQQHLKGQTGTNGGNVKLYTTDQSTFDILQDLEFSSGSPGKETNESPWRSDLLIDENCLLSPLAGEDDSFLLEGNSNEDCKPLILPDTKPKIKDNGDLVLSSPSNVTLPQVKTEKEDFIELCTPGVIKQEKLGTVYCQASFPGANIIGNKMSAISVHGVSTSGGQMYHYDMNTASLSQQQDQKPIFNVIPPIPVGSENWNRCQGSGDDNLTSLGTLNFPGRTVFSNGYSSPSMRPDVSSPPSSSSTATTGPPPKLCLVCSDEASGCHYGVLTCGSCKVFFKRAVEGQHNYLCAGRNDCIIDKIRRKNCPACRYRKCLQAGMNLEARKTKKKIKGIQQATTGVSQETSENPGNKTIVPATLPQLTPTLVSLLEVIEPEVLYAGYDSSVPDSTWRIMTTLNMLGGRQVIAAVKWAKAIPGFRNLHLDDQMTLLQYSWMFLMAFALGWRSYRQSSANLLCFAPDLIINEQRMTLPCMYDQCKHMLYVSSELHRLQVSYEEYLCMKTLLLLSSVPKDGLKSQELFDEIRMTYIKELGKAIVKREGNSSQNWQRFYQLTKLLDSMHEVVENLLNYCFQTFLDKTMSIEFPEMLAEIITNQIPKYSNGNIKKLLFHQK
# Format: cell-based, NHDF
# Description: Transrepression activity at GR expressed in NHDF cells assessed as IL-1beta-mediated IL-6 transcription by ELISA
attribute-measured: pIC50
Field pIC50 (float): negative decimal logarithm of the concentration in molar.

Solved cases below.
{"columns": ["compound", "reported-value"],
 "data": [
  ["CC(=O)c1cccc(NC(=O)O[C@@H]2[C@@H](C)c3c(cc(F)c(-c4cccc5cc[nH]c45)c3F)NC2(C)C)c1 (racemic)", 7.66],
  ["C[C@H]1c2c(cc(F)c(-c3cccc4cc[nH]c34)c2F)NC(C)(C)[C@@H]1OC(=O)Nc1cccc(C#N)c1 (racemic)", 7.42],
  ["CC(=O)c1ccc(NC(=O)O[C@@H]2[C@@H](C)c3c(cc(F)c(-c4cccc5cc[nH]c45)c3F)NC2(C)C)cc1 (racemic)", 7.51]
]}

### Prompt # lookup: pIC50 of `C[C@H]1c2c(cc(F)c(-c3cccc4cc[nH]c34)c2F)NC(C)(C)[C@@H]1OC(=O)Nc1ccc(C#N)cc1`
### Response 7.80

====

# target-desc: Glucocorticoid receptor (Homo sapiens, UniProt P04150)
# Sequence (P04150 whole entry): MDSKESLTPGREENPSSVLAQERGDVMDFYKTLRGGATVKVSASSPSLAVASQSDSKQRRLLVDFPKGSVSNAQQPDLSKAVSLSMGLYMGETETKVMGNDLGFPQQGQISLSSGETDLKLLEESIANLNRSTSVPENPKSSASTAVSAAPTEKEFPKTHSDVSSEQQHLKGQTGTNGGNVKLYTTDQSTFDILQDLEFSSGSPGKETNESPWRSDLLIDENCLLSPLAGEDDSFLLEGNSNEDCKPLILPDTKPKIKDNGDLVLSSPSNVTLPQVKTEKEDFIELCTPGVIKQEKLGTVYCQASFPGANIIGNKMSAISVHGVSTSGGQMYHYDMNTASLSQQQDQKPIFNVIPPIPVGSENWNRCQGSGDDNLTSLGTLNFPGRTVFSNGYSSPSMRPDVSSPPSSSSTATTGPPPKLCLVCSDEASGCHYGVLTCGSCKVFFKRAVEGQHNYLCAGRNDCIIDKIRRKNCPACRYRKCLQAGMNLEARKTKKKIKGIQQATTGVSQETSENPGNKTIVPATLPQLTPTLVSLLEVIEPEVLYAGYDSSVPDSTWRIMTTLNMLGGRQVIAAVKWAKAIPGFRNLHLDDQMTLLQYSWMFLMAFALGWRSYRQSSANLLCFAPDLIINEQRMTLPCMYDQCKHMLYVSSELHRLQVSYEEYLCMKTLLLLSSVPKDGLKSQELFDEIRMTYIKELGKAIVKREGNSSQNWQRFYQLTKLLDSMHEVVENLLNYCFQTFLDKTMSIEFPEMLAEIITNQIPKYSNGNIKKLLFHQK
# Type: cell-based, NHDF
attribute-measured: IC50 (nM)
Reply with just the number (in nM).

Completed entries (count: 3):
{"columns": ["compound", "IC50 [nM]"],
 "data": [
  ["C[C@H]1c2c(cc(F)c(-c3cccc4cc[nH]c34)c2F)NC(C)(C)[C@@H]1OC(=O)Nc1ccc(Cl)cc1", 29],
  ["C[C@H]1c2c(cc(F)c(-c3cccc4cc[nH]c34)c2F)NC(C)(C)[C@@H]1OC(=O)Nc1ccc(N(C)C)cc1", 39],
  ["C[C@H]1c2c(cc(F)c(-c3cccc4c(Cl)c[nH]c34)c2F)NC(C)(C)[C@@H]1OC(=O)Nc1ccccc1", 33]
]}

Let's switch to this compound now.
### Prompt Would you kindly share the measured IC50 for C[C@H]1c2c(cc(F)c(-c3cccc4c(Cl)c[nH]c34)c2F)NC(C)(C)[C@@H]1OC(=O)NC1CCCCC1 (racemic) ?
### Response 23

====

# target-desc: UniProt P04150
# Sequence (P04150 whole entry): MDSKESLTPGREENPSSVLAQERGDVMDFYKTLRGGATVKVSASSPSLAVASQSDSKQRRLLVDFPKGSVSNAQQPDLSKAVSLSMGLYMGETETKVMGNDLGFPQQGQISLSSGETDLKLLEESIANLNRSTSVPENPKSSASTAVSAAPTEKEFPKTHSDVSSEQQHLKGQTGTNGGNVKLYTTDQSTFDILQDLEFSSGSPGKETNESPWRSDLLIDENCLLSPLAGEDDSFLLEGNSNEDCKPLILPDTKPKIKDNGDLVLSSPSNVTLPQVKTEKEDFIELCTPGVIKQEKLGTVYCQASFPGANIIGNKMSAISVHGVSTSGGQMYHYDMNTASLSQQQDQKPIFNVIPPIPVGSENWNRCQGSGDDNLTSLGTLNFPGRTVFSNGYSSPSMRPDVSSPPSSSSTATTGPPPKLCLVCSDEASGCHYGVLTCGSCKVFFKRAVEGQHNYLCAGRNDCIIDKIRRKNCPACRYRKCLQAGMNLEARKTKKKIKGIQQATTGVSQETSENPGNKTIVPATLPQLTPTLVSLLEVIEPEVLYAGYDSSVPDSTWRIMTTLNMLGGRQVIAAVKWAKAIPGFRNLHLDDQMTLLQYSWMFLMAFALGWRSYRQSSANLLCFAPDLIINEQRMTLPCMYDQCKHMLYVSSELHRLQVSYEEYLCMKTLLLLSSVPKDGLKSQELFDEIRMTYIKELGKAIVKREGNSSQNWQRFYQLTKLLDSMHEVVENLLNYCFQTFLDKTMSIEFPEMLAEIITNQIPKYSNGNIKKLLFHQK
# Type: functional, cell-based, CV-1
# Description: Agonist activity at GR expressed in african green monkey CV1 cells transfected with luciferase gene linked to MMTV promoter assessed as induction of luciferase transactivation activity
attribute-measured: EC50 (nM)
Field: numeric (nM). Do not append units.

### Prompt EC50 lookup needed for `C[C@H]1c2c(cc(F)c(-c3cccc4c(Cl)c[nH]c34)c2F)NC(C)(C)[C@@H]1OC(=O)Nc1ccc(C#N)cc1` , thanks.
### Response 5.1

====

# target-desc: Glucocorticoid receptor (Homo sapiens, UniProt P04150)
# Sequence (P04150 whole entry): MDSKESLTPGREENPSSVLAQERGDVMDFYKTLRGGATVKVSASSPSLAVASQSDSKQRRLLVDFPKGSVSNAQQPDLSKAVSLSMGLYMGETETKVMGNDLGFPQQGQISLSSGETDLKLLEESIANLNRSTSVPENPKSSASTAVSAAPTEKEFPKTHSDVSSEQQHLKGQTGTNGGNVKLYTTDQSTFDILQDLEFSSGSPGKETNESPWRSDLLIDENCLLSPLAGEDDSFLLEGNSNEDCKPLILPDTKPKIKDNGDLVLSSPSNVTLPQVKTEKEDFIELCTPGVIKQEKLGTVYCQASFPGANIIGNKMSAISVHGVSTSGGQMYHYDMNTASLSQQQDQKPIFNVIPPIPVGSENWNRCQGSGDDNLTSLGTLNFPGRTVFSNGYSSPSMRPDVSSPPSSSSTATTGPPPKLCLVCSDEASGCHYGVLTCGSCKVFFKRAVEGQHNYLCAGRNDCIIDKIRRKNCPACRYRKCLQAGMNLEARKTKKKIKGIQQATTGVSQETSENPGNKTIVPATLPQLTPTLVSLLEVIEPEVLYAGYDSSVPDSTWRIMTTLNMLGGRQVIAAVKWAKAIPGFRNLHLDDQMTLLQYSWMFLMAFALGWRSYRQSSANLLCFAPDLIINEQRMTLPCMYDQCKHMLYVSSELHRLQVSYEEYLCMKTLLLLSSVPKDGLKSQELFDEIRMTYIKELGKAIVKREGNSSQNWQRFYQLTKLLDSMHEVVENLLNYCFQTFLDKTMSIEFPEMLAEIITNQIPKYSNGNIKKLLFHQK
# Assay type: cell-based, HepG2
# Description: Transrepression activity at GR expressed in IL-1beta- and TNFalpha-stimulated HepG2 cells assessed as inhibition of NFKB- or AP-1 mediated E-selectin transcription by luciferase reporter gene assay
Just a reminder that ties go to NOT MET: only IC50 strictly below 30 nM counts as MET.

{"columns": ["molecule", "group"],
 "data": [
  ["CC(=O)c1ccc(NC(=O)O[C@@H]2[C@@H](C)c3c(cc(F)c(-c4cccc5cc[nH]c45)c3F)NC2(C)C)cc1 (racemic)", "MET"],
  ["COC(=O)c1ccc(NC(=O)O[C@@H]2[C@@H](C)c3c(cc(F)c(-c4cccc5cc[nH]c45)c3F)NC2(C)C)cc1", "MET"],
  ["C[C@H]1c2c(cc(F)c(-c3cccc4cc[nH]c34)c2F)NC(C)(C)[C@@H]1OC(=O)Nc1ccccc1", "NOT MET"],
  ["C[C@H]1c2c(cc(F)c(-c3cccc4c(Cl)c[nH]c34)c2F)NC(C)(C)[C@@H]1OC(=O)Nc1ccccc1", "MET"]
]}

### Prompt Report whether reported IC50 is lower than 30 nM (strictly) for CC(C)NC(=O)O[C@@H]1[C@@H](C)c2c(cc(F)c(-c3cccc4c(Cl)c[nH]c34)c2F)NC1(C)C (racemic)
### Response NOT MET
